Give GI50 for every item shown.
# Test system: OVCAR-8
# assay-comment: NCI tumour cell line growth inhibition, 48 h
Calls of active or inactive are those of the source. Rule as the data show it: active = GI50 up to about 1.1 µM and inactive = higher.

Check out these entries, answers already filled in.
1. Cc1cccc(N2C(=O)/C(=C/c3ccc(N(CCC#N)CCC#N)cc3C)N=C2c2cc([N+](=O)[O-])ccc2Cl)c1    > 100 µM (inactive)
2. CN(C)/C=C/c1ccnc2c1C(=O)c1ccccc1C2=O    15.5 µM (inactive)
3. CC1(CO)OC(n2cnc3c(N)ncnc32)C(O)C1O (configuration not stated)    > 100 µM (inactive)
4. N[C@]1(C(=O)O)C[C@@H]2C(Br)=NO[C@@H]2C1    > 100 µM (inactive)
5. Cc1oc2c(Cl)cc(O)c(Cl)c2c2cccc1-2    23.6 µM (inactive)

# batch: return GI50 for each of the 3 compounds below
1. CC(C)(C)OC(=O)N1CCC2(CC1)C(=O)NCN2c1ccccc1
2. C[C@]12CC[C@H](O)C=C1CC[C@@H]1[C@@H]2CC[C@]2(C)C(=N/O)/C(=C/c3ccncc3)C[C@@H]12
3. Cc1ccc(C2(O)c3ccccc3C(=O)N(C)C2(O)c2ccc(C)cc2)cc1 (configuration not stated)

Key:
1: > 100 µM (inactive); 2: 16 µM (inactive); 3: 25.5 µM (inactive)

# batch: return GI50 for each of the 5 compounds below
1. C[N+](C)(C)c1ncnc2c1ncn2C1CC(O)C(CO)O1 (configuration not stated)
2. O=C1c2ccccc2C(=O)c2c(NC3CCCCC3)ccc(Nc3ccc(S(=O)(=O)O)cc3)c21
3. O=C(c1nc2ccc([N+](=O)[O-])cc2nc1O)C(O)c1ccc2c(c1)OCO2 (configuration not stated)
4. O=C(c1ccco1)N(C(=S)N1CCN(c2ccccc2)CC1)c1ccccc1
5. N=C(N)NCC(N)C(=O)O (configuration not stated)

Key:
["> 100 µM (inactive)", "35.3 µM (inactive)", "> 100 µM (inactive)", "> 100 µM (inactive)", "> 100 µM (inactive)"]

# batch: return GI50 for each of the 8 compounds below
1. CC(=O)OCC1=CC2CCC3C(C)(CCC[C@]3(C)COC(C)=O)C23CC[C@H]1C3 (some centres not stated)
2. CN1CC[C@]2(C)c3cc(O)ccc3CC3CCCC1C32C (some centres not stated)
3. Cc1ccc2[nH]c3c4c5ccccc5nc-4c[nH]c3c2c1
4. COc1cc2c(cc1OC)C(=O)N1CCCC1C(=O)S2 (configuration not stated)
5. O=P(O)(O)CC1OC(CO)C(O)C1O (configuration not stated)
6. CCCNc1ncnc2[nH]ncc12
7. O=C1O[C@H]2C3C4CCC(C4[C@@H]2I)[C@H]13 (some centres not stated)
8. N=C(CC(=O)NOC(=O)c1ccccc1)NOC(=O)c1ccccc1

Key:
["53.7 µM (inactive)", "> 100 µM (inactive)", "18.6 µM (inactive)", "> 100 µM (inactive)", "> 100 µM (inactive)", "> 100 µM (inactive)", "> 100 µM (inactive)", "27.9 µM (inactive)"]

Exercise: Which GI50 is reported for this compound? CCOC(=O)CCC(NC(=O)Cc1ccc(Nc2nc3cc(F)c(F)cc3nc2C(=O)OCC)cc1)C(=O)OCC (configuration not stated)
Key: 94.2 µM (inactive)
